FYI, the data here is from patent US20230130144A1.

- Tested on: 143B human osteosarcoma cells
- assayDetails: Cell count (Trypan Blue) viability, drug combination administration, 143B cells
- Assay type: cell-based
- measurementParameters: Homo sapiens, 143B, 24 h, read-out: cell viability
Reported viability at 20 µM by item:
Respond with the bare value in %.

Entry `O=C(O)CC[C@H]1CC[C@@](c2cc(F)ccc2F)(S(=O)(=O)c2ccc(Cl)cc2)CC1` — recorded viability at 20 µM = 62

* * *

Reported viability at 20 µM by item:
- System: 143B human osteosarcoma cells
- assayDetails: Cell count (Trypan Blue) viability, drug combination administration, 143B cells
- Assay type: cell-based
- measurementParameters: Homo sapiens, 143B, 24 h, read-out: cell viability
- Protocol: 10 μL was taken for counting. (5) After 24 h of dosing, the medium was discarded. […] The cells were digested for 5 min.
Note to self: number, then unit, no commentary.

compound	viability at 20 µM
Cn1c(=O)c2c(ncn2CC(=O)Nc2ccc(-c3ccccc3)nn2)n(C)c1=O [ETC-159]	60%

Entry COc1ccc2cc3[n+](cc2c1OC)CCc1cc2c(cc1-3)OCO2 [berberine] — recorded viability at 20 µM = 94%

Entry Cc1cc(-c2ncc(CC(=O)Nc3ccc(-c4cnccn4)cn3)cc2C)ccn1 [LGK974] — recorded viability at 20 µM = 64%
